Hi there, I'd appreciate the recorded Average (% positive control) for every entry that follows.
# target entity: NLRP3 inflammasome (Mus musculus)
# Construct: endogenous in cells; host or cells: primary mouse bone marrow-derived dendritic cells (BMDCs), LPS-primed
# Sequence (Q8R4B8 whole entry): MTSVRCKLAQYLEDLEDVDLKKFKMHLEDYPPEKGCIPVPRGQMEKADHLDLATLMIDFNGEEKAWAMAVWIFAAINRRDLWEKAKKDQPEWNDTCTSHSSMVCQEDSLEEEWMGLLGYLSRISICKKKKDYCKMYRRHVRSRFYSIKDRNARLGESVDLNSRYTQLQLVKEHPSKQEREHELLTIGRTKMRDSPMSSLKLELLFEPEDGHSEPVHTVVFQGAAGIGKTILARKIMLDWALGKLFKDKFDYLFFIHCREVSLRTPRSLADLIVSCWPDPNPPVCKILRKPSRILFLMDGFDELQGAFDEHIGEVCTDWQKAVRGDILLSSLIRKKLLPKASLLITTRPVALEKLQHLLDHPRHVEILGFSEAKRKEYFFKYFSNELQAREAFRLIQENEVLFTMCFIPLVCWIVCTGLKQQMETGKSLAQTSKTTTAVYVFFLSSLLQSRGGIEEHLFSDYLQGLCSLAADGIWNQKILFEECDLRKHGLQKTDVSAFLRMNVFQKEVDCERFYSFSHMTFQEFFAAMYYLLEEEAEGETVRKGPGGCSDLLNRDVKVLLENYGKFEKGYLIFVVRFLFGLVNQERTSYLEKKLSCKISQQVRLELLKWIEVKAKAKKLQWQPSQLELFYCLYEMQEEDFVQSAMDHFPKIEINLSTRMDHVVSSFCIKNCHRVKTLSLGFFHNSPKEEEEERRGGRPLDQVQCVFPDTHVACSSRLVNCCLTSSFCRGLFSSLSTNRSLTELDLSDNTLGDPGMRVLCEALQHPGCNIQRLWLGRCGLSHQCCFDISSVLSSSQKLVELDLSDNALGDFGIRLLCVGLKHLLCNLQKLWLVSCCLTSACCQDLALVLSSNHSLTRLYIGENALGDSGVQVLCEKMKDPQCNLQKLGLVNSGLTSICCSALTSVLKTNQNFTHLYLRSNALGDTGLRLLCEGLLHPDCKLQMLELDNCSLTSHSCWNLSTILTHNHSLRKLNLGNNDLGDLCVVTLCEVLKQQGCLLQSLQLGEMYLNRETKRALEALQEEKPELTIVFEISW
# measurement notes: IL-1β release from LPS-primed BMDCs (ELISA) as readout of NLRP3 inflammasome activation
# Format: cell-based
# details: IL-1β release; compound 50 μM; positive control nigericin 5 μM
Numbers only, in % positive control.

INSERT INTO results (compound_structure_string, property_name, experimental_result) VALUES
  ('O=C(Nc1ccccc1)Nc1ccc(NC(=O)c2ccoc2)cc1', 'Average (% positive control)', 15.066),
  ('O=C(Nc1ccccc1)Nc1cccc(NC(=O)NC2CC2)c1', 'Average (% positive control)', 1.214);

Go through the list and state Average (% positive control) for each entry.
1. O=C(Nc1ccccc1)Nc1cccc(NC(=O)C2CC2)c1
2. CNC(=O)NCc1cccc(NC(=O)Nc2ccccc2)c1

Marked response:
1: 1.362; 2: 0.920

Exam item: Would you kindly share the measured Average (% positive control) for "CC(C)Oc1ccccc1NC(=O)NCc1nc(C2CC2)no1" ?
Marked response: 1.180
